# Test system: P. aeruginosa PAO397
# METHOD_DESCRIPTION: Broth microdilution MIC, P. aeruginosa PAO397
# Assay type: cell-based
# CONDITIONS: Pseudomonas aeruginosa, PAO397, 18 h, read-out: PAO397 KO MIC
QUANTITY: MIC

LINE_NOTATION	MIC
N#Cc1cc(F)c(CN(Cc2nnc(N)o2)C(=O)CSc2cccc(F)c2Cl)c(F)c1	< 1 µg/mL
N#Cc1ccc(CN(Cc2nnc(N)o2)C(=O)COc2ccccc2Cl)cn1	1 to 16 µg/mL
CCc1c(F)cc(F)cc1OCC(=O)N(Cc1nnc(N)o1)Cc1ccc(C#N)cc1F	< 1 µg/mL
N#Cc1ccc(CN(Cc2nnc(N)o2)C(=O)CCc2ccccc2Cl)cn1	1 to 16 µg/mL
N#Cc1ccc(CN(Cc2nnc(N)o2)C(=O)CSc2ccccc2Cl)cc1	< 1 µg/mL

Let's switch to this molecule now.
Complete the entry with MIC for "N#Cc1ccc(CN(Cc2nnn[nH]2)C(=O)CSc2ccccc2Cl)cc1"
16 to 64 µg/mL

----------
# System: P. aeruginosa PAO397
# METHOD_DESCRIPTION: Broth microdilution MIC, P. aeruginosa PAO397
# Assay type: cell-based
# CONDITIONS: Pseudomonas aeruginosa, PAO397, 18 h, read-out: PAO397 KO MIC
QUANTITY: MIC

# count of solved cases: 4
LINE_NOTATION	TARGET_OR_TEST_SYSTEM	QUANTITY	VAL
N#Cc1ccc(CN(CC(=O)N2CCOCC2)C(=O)CSc2ccccc2Cl)cc1	P. aeruginosa PAO397	MIC	16 to 64 µg/mL
CC(=O)Nc1ccc(CN(Cc2nnc(N)o2)C(=O)CSc2ccccc2Cl)cc1	P. aeruginosa PAO397	MIC	16 to 64 µg/mL
N#Cc1ccc(CN(Cc2c[nH]cn2)C(=O)CSc2ccccc2Cl)cc1	P. aeruginosa PAO397	MIC	1 to 16 µg/mL
N#Cc1ccc(CN(Cc2nnc(N)o2)C(=O)CSc2cc(F)ccc2Cl)c(F)c1	P. aeruginosa PAO397	MIC	< 1 µg/mL

Let's switch to this compound now.
Complete the entry with MIC for "CS(=O)(=O)Nc1ccc(CN(Cc2nnc(N)o2)C(=O)CSc2ccccc2Cl)cc1"
1 to 16 µg/mL

----------
# Tested on: P. aeruginosa PAO397
# METHOD_DESCRIPTION: Broth microdilution MIC, P. aeruginosa PAO397
# Format: cell-based
# CONDITIONS: Pseudomonas aeruginosa, PAO397, 18 h, read-out: PAO397 KO MIC
Field: MIC. Provide a value for each of the compounds that follow.

# count of solved cases: 4
LINE_NOTATION	MIC
Nc1nnc(CN(Cc2ccc(S(N)(=O)=O)cc2F)C(=O)CSc2cc(F)ccc2Cl)o1	< 1 mg/L
N#Cc1ccc(CN(Cc2nnc(N)o2)C(=O)COc2cccc(Cl)c2Cl)c(F)c1	< 1 mg/L
N#Cc1ccc(CN(Cc2nnc(N)s2)C(=O)CSc2ccccc2Cl)cc1	1 to 16 mg/L
N#Cc1ccc(CN(C(=O)CSc2ccccc2Cl)C2(c3nnc(N)o3)CC2)c(F)c1	1 to 16 mg/L

Hi there! I need MIC for each item below, if you can.
1. CCc1ccccc1OCC(=O)N(Cc1ccc(C#N)cc1)Cc1nnc(N)o1
2. Nc1nnc(CN(Cc2ccc(S(N)(=O)=O)cc2)C(=O)CSc2ccccc2Cl)o1

["< 1 mg/L", "< 1 mg/L"]

Hi there! I need MIC for each item below, if you can.
1. Nc1nnc(CN(Cc2ccc(S(N)(=O)=O)cc2F)C(=O)CSc2cc(F)cc(F)c2Cl)o1
2. N#Cc1ccc(CN(Cc2nnc(N)o2)C(=O)CSc2cccc(F)c2Cl)cc1

["< 1 mg/L", "< 1 mg/L"]

These data points were gathered from patent US20240166612A1.
